Each record here notes measured MIC.
Test system: Propionibacterium acnes (ATCC 6919)
assay-name: MIC and MBC, broth microdilution
Format: cell-based
conditions: Cutibacterium acnes, ATCC6919; P. acnes, anaerobic, 37 °C, 48 h; read-out: MIC

molecule	system-under-test	MIC / µg/mL
C=CC(C)(O)CCC=C(C)C (stereo not drawn)	Propionibacterium acnes (ATCC 6919)	250
O=c1c(O[C@@H]2O[C@H](CO)[C@H](O)[C@H](O)[C@H]2O)c(-c2ccc(O)c(O)c2)oc2cc(O)cc(O)c12 [Hyperoside]	Propionibacterium acnes (ATCC 6919)	250
CC(C)=CCC[C@](C)(O)[C@@H]1CC=C(C)CC1	Propionibacterium acnes (ATCC 6919)	125
CC(C)=CCCC(C)CCO (stereo not drawn)	Propionibacterium acnes (ATCC 6919)	125
OCCc1ccccc1	Propionibacterium acnes (ATCC 6919)	125
C[C@@H]1O[C@@H](OC[C@H]2O[C@@H](Oc3c(-c4ccc(O)c(O)c4)oc4cc(O)cc(O)c4c3=O)[C@H](O)[C@@H](O)[C@@H]2O)[C@H](O)[C@H](O)[C@H]1O	Propionibacterium acnes (ATCC 6919)	125

###

System: Salmonella enteritidis enteritidis (ATCC 14028)
assay-name: MIC and MBC, broth microdilution
Assay type: cell-based
conditions: Salmonella enterica; S. enteritidis enteritidis, 37 °C, 24 h; read-out: MIC
Each record here notes measured MIC.

compound	system-under-test	MIC
OCCc1ccccc1	Salmonella enteritidis enteritidis (ATCC 14028)	125 µg/mL
CC(C)=CCC[C@](C)(O)[C@@H]1CC=C(C)CC1	Salmonella enteritidis enteritidis (ATCC 14028)	500 µg/mL
CC(C)=CCCC(C)CCO (stereo not drawn)	Salmonella enteritidis enteritidis (ATCC 14028)	250 µg/mL
C=CC(C)(O)CCC=C(C)C (stereo not drawn)	Salmonella enteritidis enteritidis (ATCC 14028)	500 µg/mL
C[C@@H]1O[C@@H](OC[C@H]2O[C@@H](Oc3c(-c4ccc(O)c(O)c4)oc4cc(O)cc(O)c4c3=O)[C@H](O)[C@@H](O)[C@@H]2O)[C@H](O)[C@H](O)[C@H]1O	Salmonella enteritidis enteritidis (ATCC 14028)	125 µg/mL
O=c1c(O[C@@H]2O[C@H](CO)[C@H](O)[C@H](O)[C@H]2O)c(-c2ccc(O)c(O)c2)oc2cc(O)cc(O)c12 [Hyperoside]	Salmonella enteritidis enteritidis (ATCC 14028)	250 µg/mL

###

System: candida albicans (ATCC 10231)
assay-name: MIC and MFC, broth microdilution
Type: cell-based
conditions: Candida albicans, ATCC10231; C. albicans; read-out: MFC
Experimental: The antimicrobial activity was measured by the method described by Xue. All standard strains were obtained from the Guangdong Microbiology Culture Center (Guangzhou, China). […] The MIC and MBC or MFC values were determined as described previously by Xue. […] The MIC was recorded as the lowest concentration of sample showing no detectable growth. […]
experimental-readout: MFC

> print(dat)
                                  molecule              system.under.test  result.value
1   C=CC(C)(O)CCC=C(C)C (stereo not shown)  candida albicans (ATCC 10231)    1000 µg/mL
2  O=c1cc(-c2ccc(O)c(O)c2)oc2cc(O)cc(O)c12  candida albicans (ATCC 10231)     500 µg/mL
3                              OCCc1ccccc1  candida albicans (ATCC 10231)     500 µg/mL
4      CC(C)=CCCC(C)CCO (stereo not shown)  candida albicans (ATCC 10231)     500 µg/mL

###

Each record here notes measured MFC.
Tested on: candida albicans (ATCC 10231)
assay-name: MIC and MFC, broth microdilution
Type: cell-based
conditions: Candida albicans, ATCC10231; C. albicans; read-out: MFC
experimental-readout: MFC

compound	system-under-test	result-value
CC(C)=CCC[C@](C)(O)[C@@H]1CC=C(C)CC1	candida albicans (ATCC 10231)	> 1000 µg/mL
C[C@@H]1O[C@@H](OC[C@H]2O[C@@H](Oc3c(-c4ccc(O)c(O)c4)oc4cc(O)cc(O)c4c3=O)[C@H](O)[C@@H](O)[C@@H]2O)[C@H](O)[C@H](O)[C@H]1O	candida albicans (ATCC 10231)	1000 µg/mL
O=c1c(O[C@@H]2O[C@H](CO)[C@H](O)[C@H](O)[C@H]2O)c(-c2ccc(O)c(O)c2)oc2cc(O)cc(O)c12 [Hyperoside]	candida albicans (ATCC 10231)	1000 µg/mL

###

Each record here notes measured MBC.
Tested on: Salmonella enteritidis enteritidis (ATCC 14028)
assay-name: MIC and MBC, broth microdilution
Format: cell-based
conditions: Salmonella enterica; S. enteritidis enteritidis; read-out: MBC

compound	MBC
C[C@@H]1O[C@@H](OC[C@H]2O[C@@H](Oc3c(-c4ccc(O)c(O)c4)oc4cc(O)cc(O)c4c3=O)[C@H](O)[C@@H](O)[C@@H]2O)[C@H](O)[C@H](O)[C@H]1O	500 µg/mL
OCCc1ccccc1	500 µg/mL
C=CC(C)(O)CCC=C(C)C (stereo not drawn)	> 1000 µg/mL
CC(C)=CCCC(C)CCO (stereo not drawn)	1000 µg/mL
CC(C)=CCC[C@](C)(O)[C@@H]1CC=C(C)CC1	> 1000 µg/mL
O=c1c(O[C@@H]2O[C@H](CO)[C@H](O)[C@H](O)[C@H]2O)c(-c2ccc(O)c(O)c2)oc2cc(O)cc(O)c12 [Hyperoside]	500 µg/mL

###

Each record here notes measured MIC.
Test system: Fusobacterium nucleatum (ATCC 10953)
assay-name: MIC and MBC, broth microdilution
Assay type: cell-based
conditions: Fusobacterium nucleatum, ATCC10953; F. nucleatum, anaerobic, 37 °C, 48 h; read-out: MIC
experimental-readout: MIC (µg/mL)

compound	experimental-readout	quantity-unit	result-value
C=CC(C)(O)CCC=C(C)C (stereo not shown)	MIC	µg/mL	250
C[C@@H]1O[C@@H](OC[C@H]2O[C@@H](Oc3c(-c4ccc(O)c(O)c4)oc4cc(O)cc(O)c4c3=O)[C@H](O)[C@@H](O)[C@@H]2O)[C@H](O)[C@H](O)[C@H]1O	MIC	µg/mL	62
O=c1cc(-c2ccc(O)c(O)c2)oc2cc(O)cc(O)c12	MIC	µg/mL	125
OCCc1ccccc1	MIC	µg/mL	8
O=c1c(O[C@@H]2O[C@H](CO)[C@H](O)[C@H](O)[C@H]2O)c(-c2ccc(O)c(O)c2)oc2cc(O)cc(O)c12 [Hyperoside]	MIC	µg/mL	250
CC(C)=CCC[C@](C)(O)[C@@H]1CC=C(C)CC1	MIC	µg/mL	8
CC(C)=CCCC(C)CCO (stereo not shown)	MIC	µg/mL	250

###

system-under-test: mushroom tyrosinase
assay-name: Tyrosinase inhibitory activity (spectrophotometric, DOPA substrate)
Type: biochemical
conditions: pH 6.8, 37 °C, 15 min, positive control = kojic acid
Each record here notes measured Tyrosinase inhibition IC50.
experimental-readout: Tyrosinase inhibition IC50 (a μg/mL)

molecule	system-under-test	experimental-readout	quantity-unit	result-value
CC(C)=CCC[C@](C)(O)[C@@H]1CC=C(C)CC1	mushroom tyrosinase	Tyrosinase inhibition IC50	a μg/mL	635
CC(C)=CCCC(C)CCO (stereo not shown)	mushroom tyrosinase	Tyrosinase inhibition IC50	a μg/mL	825
C=CC(C)(O)CCC=C(C)C (stereo not shown)	mushroom tyrosinase	Tyrosinase inhibition IC50	a μg/mL	730

###

Each record here notes measured Tyrosinase inhibition IC50.
system-under-test: mushroom tyrosinase
assay-name: Tyrosinase inhibitory activity (spectrophotometric, DOPA substrate)
Type: biochemical
conditions: pH 6.8, 37 °C, 15 min, positive control = kojic acid
Procedure: The reaction mixture was vortexed and maintained at 37 °C for 15 min, and then the absorption maximum of dopachrome (set at 479 nm) was measured using a microplate reader (Molecular Devices, Sunnyvale, California, USA). The tests were performed in triplicate, and the value of tyrosinase inhibition activity was calculated as described above.
experimental-readout: Tyrosinase inhibition IC50 (µg/mL)

molecule	quantity-unit	result-value
C[C@@H]1O[C@@H](OC[C@H]2O[C@@H](Oc3c(-c4ccc(O)c(O)c4)oc4cc(O)cc(O)c4c3=O)[C@H](O)[C@@H](O)[C@@H]2O)[C@H](O)[C@H](O)[C@H]1O [Rutin]	µg/mL	0.856
O=c1c(O[C@@H]2O[C@H](CO)[C@H](O)[C@H](O)[C@H]2O)c(-c2ccc(O)c(O)c2)oc2cc(O)cc(O)c12 [Hyperoside]	µg/mL	0.762
O=c1cc(-c2ccc(O)c(O)c2)oc2cc(O)cc(O)c12 [Luteolin]	µg/mL	0.613
